Biological target: human cathepsin B (Homo sapiens)
Experiment: Inhibition of cathepsin B, fluorogenic substrate Z-Phe-Arg-AMC
Result type: pIC50
Schema: pIC50 number; meaning minus log10 of the concentration expressed in molar units.

O=C(O)C=Cc1ccc(O)cc1O [2,4-Dihydroxy-cinnamic acid, 2,4-dihydroxycinnamic acid]: 3.04
O=C(/C=C/c1ccc(O)c(O)c1)OCCc1ccccc1 [Caffeic acid phenethyl ester, caffeic acid phenethyl ester]: 3.33
O=C(O)C=Cc1ccc(O)c(O)c1 [Caffeic acid, 3,4-dihydroxycinnamic acid]: 3.96

Here's the next entry for you.
Complete the entry with pIC50 for O=C(/C=C/c1ccc(O)c(O)c1)O[C@@H]1C[C@](O)(C(=O)O)C[C@@H](O)[C@H]1O [Chlorogenic acid, chlorogenic acid]
3.47
